# experimental-system: lysine gingipain (Kgp) (Porphyromonas gingivalis (strain ATCC 33277 / DSM 20709 / CIP 103683 / JCM 12257 / NCTC 11834 / 2561), UniProt B2RLK2)
# method-notes: Fluorogenic lysine gingipain inhibition assay
# assay-context: 0.1 nM Kgp, 10 uM Z-His-Glu-Lys-MCA, 90 minutes, 37° C., pH 7.5
attribute-measured: IC50

compound="NCCCC[C@H](NC(=O)[C@@H]1CCCN(C(=O)CCc2ccccc2)C1)C(=O)c1nc2ccccc2s1 [Compound 4]" reported_measurement="1 to 10 nM"
